Tested on: SW 480 human large intestine cell line
Assay: Growth inhibition test (MTT) for cytotoxic properties on tumour cell lines
Type: cell-based
Conditions: SW480 cells, growth checked after day 6, read-out: IC50 of the cytotoxic action on tumour cell lines, SW480
Description: A: Growth Inhibition Test for the Determination of the Cytotoxic Properties on Various Tumour Cell Lines […]
Where a SMILES comes first, the peptide text is derived from it. [ ]: non-standard residue; d: D form. The star is where a group is joined. ξ: configuration not given here. Camptothecin(20R,20-O) = CC[C@]1(O*)C(=O)OCc2c1cc1n(c2=O)Cc2cc3ccccc3nc2-1; X5 = C[C@H]1O[C@@H](Oc2ccc(NC(=S)*)cc2)[C@@H](O)[C@@H](OCC(N)=O)[C@H]1O; X4 = CO[C@H]1[C@H](O)[C@@H](Oc2ccc(NC(=S)*)cc2)O[C@@H](C)[C@H]1O; X1 = CO[C@H]1[C@@H](O)[C@@H](C)OC(Oc2ccc(NC(=S)*)cc2)[C@H]1O; X7 = OC[C@H]1OC(Oc2ccc(NC(=S)*)cc2)[C@@H](O)[C@@H](O)[C@H]1O; X2 = CC[C@@]1(O*)C(=O)OCc2c1cc1n(c2=O)Cc2cc3ccccc3nc2-1; ξV = CC(C)C(N)C(=O)O; ξP = O=C(O)C1CCCN1
Give pIC50 for every item shown.
Scale: negative log10 of molar concentration, which is what pIC50 denotes.

// query Form field - read-out: pIC50; system: SW 480 human large intestine cell line; submitted item: CC[C@@]1(OC(=O)[C@@H](NC(=O)[C@H](CO)NC(=O)[C@H](CC(C)C)NC(=O)CNC(=O)[C@H](CC(C)C)NC(=O)[C@@H]2CCCN2C(=S)Nc2ccc(O[C@H]3O[C@@H](C)[C@@H](O)[C@@H](OC)[C@@H]3O)cc2)C(C)C)C(=O)OCc2c1cc1n(c2=O)Cc2cc3ccccc3nc2-1 [Example 17] (X4-PLGLSV-X2)
// result 7.40

// query And what about the compound CC[C@@]1(OC(=O)[C@H](NC(=O)[C@@H](CC(N)=O)NC(=O)[C@@H](CC(C)C)NC(=O)CNC(=O)[C@H](CC(C)C)NC(=O)[C@H]2CCCN2C(=S)Nc2ccc(OC3O[C@H](C)[C@H](O)[C@H](OC)[C@@H]3O)cc2)C(C)C)C(=O)OCc2c1cc1n(c2=O)Cc2cc3ccccc3nc2-1 (stereo partly drawn) [Example 5] (X1-[dP]LG[dL][dN][dV]-X2) ?
// result 7.10

// query And what about the compound CC[C@]1(OC(=O)C(NC(=O)[C@@H](CC(N)=O)NC(=O)[C@@H](CC(C)C)NC(=O)CNC(=O)[C@H](CC(C)C)NC(=O)C2CCCN2C(=S)Nc2ccc(O[C@@H]3O[C@H](C)[C@H](O)[C@H](OCC(N)=O)[C@@H]3O)cc2)C(C)C)C(=O)OCc2c1cc1n(c2=O)Cc2cc3ccccc3nc2-1 (stereo partly drawn) [Example 26] (X5-[ξP]LG[dL][dN][ξV]-{Camptothecin(20R,20-O)}) ?
// result 6.82

// query And what about the compound CC[C@@]1(OC(=O)[C@H](NC(=O)[C@@H](Cc2c[nH]cn2)NC(=O)[C@@H](CC(C)C)NC(=O)CNC(=O)[C@H](CC(C)C)NC(=O)[C@H]2CCCN2C(=S)Nc2ccc(OC3O[C@H](C)[C@H](O)[C@H](OC)[C@@H]3O)cc2)C(C)C)C(=O)OCc2c1cc1n(c2=O)Cc2cc3ccccc3nc2-1.Cl (stereo partly drawn) [Example 3] (X1-[dP]LG[dL][dH][dV]-X2) ?
// result 7.00

// query And what about the compound CC[C@@]1(OC(=O)[C@@H](NC(=O)[C@H](C)NC(=O)[C@H](CC(C)C)NC(=O)CNC(=O)[C@H](CC(C)C)NC(=O)[C@@H]2CCCN2C(=S)Nc2ccc(O[C@H]3O[C@@H](C)[C@@H](O)[C@@H](OC)[C@@H]3O)cc2)C(C)C)C(=O)OCc2c1cc1n(c2=O)Cc2cc3ccccc3nc2-1 [Example 22] (X4-PLGLAV-X2) ?
// result 7.40

// query And what about the compound CC[C@@]1(OC(=O)[C@H](NC(=O)[C@@H](CC(N)=O)NC(=O)[C@@H](CC(C)C)NC(=O)CNC(=O)[C@H](CC(C)C)NC(=O)[C@H]2CCCN2C(=S)Nc2ccc(OC3O[C@H](CO)[C@H](O)[C@H](O)[C@@H]3O)cc2)C(C)C)C(=O)OCc2c1cc1n(c2=O)Cc2cc3ccccc3nc2-1 (stereo partly drawn) [Example 24] (X7-[dP]LG[dL][dN][dV]-X2) ?
// result 6.70
